Reported values of IC50 for individual entries
Target: Dolichyl-phosphate-mannose--protein mannosyltransferase 1 (Candida albicans (strain SC5314 / ATCC MYA-2876) (Yeast), UniProt O74189)
Assay: In vitro inhibition of Candida albicans protein mannosyl transferase 1
Enter the number, and then the unit.

q: // returns reported IC50 for input COc1cccc(COc2ccc(/C=C3\SC(=S)N(CC(=O)O)C3=O)cc2OCc2cccc(OC)c2)c1
a: 15 µM

q: // returns reported IC50 for input CS(=O)(=O)c1ccc(COc2cc(/C=C3\SC(=S)N(CC(=O)O)C3=O)ccc2OCc2ccccc2)cc1
a: 20 µM

q: // returns reported IC50 for input O=C(O)CN1C(=O)/C(=C/c2ccc(OCc3ccccc3)c(OCc3cccnc3)c2)SC1=S
a: 43 µM

* * *

Target: Dolichyl-phosphate-mannose--protein mannosyltransferase 1 (Candida albicans (strain SC5314 / ATCC MYA-2876) (Yeast), UniProt O74189)
Experiment: In vitro inhibition of Candida albicans protein mannosyl transferase 1
Binarize IC50 at 1000 nM; below is TRUE, at or above is FALSE.

Worked examples follow.
compound	label
C[C@@H](COc1ccc(/C=C2\SC(=S)N(CC(=O)O)C2=O)cc1O[C@@H](c1ccccc1)C(F)(F)F)c1ccccc1	FALSE
C[C@@H](COc1ccc(/C=C2\SC(=S)N(CC(=O)O)C2=O)cc1OCc1ccccc1)c1ccccc1	FALSE
O=C(O)CN1C(=O)/C(=C/c2cccc(OCc3ccccc3)c2)SC1=S	FALSE
CC(Oc1cc(/C=C2\SC(=S)N(CC(=O)O)C2=O)ccc1OCCc1ccccc1)c1ccccc1 (stereo not drawn)	TRUE
O=C(O)CN1C(=O)/C(=C/c2ccc(OCCc3ccc(Cl)cc3)c(OCc3ccccc3)c2)SC1=S	FALSE

q: Does the reported IC50 of O=C(O)CN1C(=O)/C(=C/c2ccc(OCc3ccc(Cl)cc3)c(OCc3ccccc3)c2)SC1=S stay below 1000 nM?
a: TRUE

q: Does the reported IC50 of Cc1ccc(COc2ccc(/C=C3\SC(=S)N(CC(=O)O)C3=O)cc2OCc2ccccc2)cc1 stay below 1000 nM?
a: FALSE

q: Does the reported IC50 of C[C@H](COc1ccc(/C=C2\SC(=S)N(CC(=O)O)C2=O)cc1O[C@H](c1ccccc1)C(F)(F)F)c1ccccc1 stay below 1000 nM?
a: TRUE

* * *

Target: Dolichyl-phosphate-mannose--protein mannosyltransferase 1 (Candida albicans (strain SC5314 / ATCC MYA-2876) (Yeast))
Sequence (O74189 whole entry): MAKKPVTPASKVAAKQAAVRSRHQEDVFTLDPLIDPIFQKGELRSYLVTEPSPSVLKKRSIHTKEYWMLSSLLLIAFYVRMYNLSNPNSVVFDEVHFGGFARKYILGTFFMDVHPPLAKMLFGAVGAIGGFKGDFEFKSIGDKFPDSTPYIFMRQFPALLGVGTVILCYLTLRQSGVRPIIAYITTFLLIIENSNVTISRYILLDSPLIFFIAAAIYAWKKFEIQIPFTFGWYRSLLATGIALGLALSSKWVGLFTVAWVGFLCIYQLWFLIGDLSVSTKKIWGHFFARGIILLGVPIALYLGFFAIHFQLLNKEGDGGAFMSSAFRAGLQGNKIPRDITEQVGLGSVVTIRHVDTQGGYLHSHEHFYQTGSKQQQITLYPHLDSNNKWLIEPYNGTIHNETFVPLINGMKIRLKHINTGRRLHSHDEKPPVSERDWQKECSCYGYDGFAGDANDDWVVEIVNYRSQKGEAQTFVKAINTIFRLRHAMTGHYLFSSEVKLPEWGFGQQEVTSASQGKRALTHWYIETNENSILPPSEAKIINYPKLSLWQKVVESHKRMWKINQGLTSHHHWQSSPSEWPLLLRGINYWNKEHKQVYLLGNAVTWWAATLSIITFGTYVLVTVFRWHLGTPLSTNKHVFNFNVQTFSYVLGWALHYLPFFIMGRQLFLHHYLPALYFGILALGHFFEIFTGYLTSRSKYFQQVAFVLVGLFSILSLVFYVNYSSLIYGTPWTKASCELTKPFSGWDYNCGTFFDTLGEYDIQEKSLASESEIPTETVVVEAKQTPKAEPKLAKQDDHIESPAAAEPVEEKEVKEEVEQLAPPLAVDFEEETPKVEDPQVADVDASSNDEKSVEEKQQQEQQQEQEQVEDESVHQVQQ
Test: In vitro inhibition of Candida albicans protein mannosyl transferase 1
Label scheme for IC50: 0 = under 2 µM, 1 = from 2 µM up to 4 µM, 2 = 4 µM and over

molecule	label
O=C(O)CN1C(=O)/C(=C/c2ccc(OCc3ccccc3)c(OCc3ccccc3)c2)SC1=S	1
O=C(O)CN1C(=O)/C(=C/c2ccc(OCc3ccc(C(F)(F)F)cc3)c(OCc3ccccc3)c2)SC1=S	0
O=C(O)CN1C(=O)/C(=C/c2ccc(OCc3c(F)cccc3F)c(OCc3c(F)cccc3F)c2)SC1=S	2

q: State the class of the molecule shown: C[C@@H](COc1ccc(/C=C2\SC(=S)N(CC(=O)O)C2=O)cc1O[C@H](C)c1ccccc1)c1ccccc1
a: 0

q: State the class of the molecule shown: C[C@H](Oc1cc(/C=C2\SC(=S)N(CC(=O)O)C2=O)ccc1OC[C@H](C)c1ccccc1)c1ccccc1
a: 0

q: State the class of the molecule shown: COc1ccc(COc2ccc(/C=C3\SC(=S)N(CC(=O)O)C3=O)cc2OCc2ccccc2)cc1
a: 1

q: State the class of the molecule shown: O=C(O)CN1C(=O)/C(=C/c2ccc(OCc3ccccc3)c(OCc3ccc(F)cc3F)c2)SC1=S
a: 2

q: State the class of the molecule shown: O=C(O)CN1C(=O)/C(=C/c2ccc(OCCc3ccccc3)c(OCc3ccccc3)c2)SC1=S
a: 0

q: State the class of the molecule shown: COc1cccc(COc2cc(/C=C3\SC(=S)N(CC(=O)O)C3=O)ccc2OCc2ccccc2)c1
a: 2

q: State the class of the molecule shown: CS(=O)(=O)c1ccc(COc2ccc(/C=C3\SC(=S)N(CC(=O)O)C3=O)cc2OCc2ccccc2)cc1
a: 1

q: State the class of the molecule shown: CCC(Oc1cc(/C=C2\SC(=S)N(CC(=O)O)C2=O)ccc1OCCc1ccccc1)c1ccccc1 (configuration not stated)
a: 0

q: State the class of the molecule shown: O=C(O)CN1C(=O)/C(=C/c2ccc(OCCc3ccc(OC(F)(F)F)cc3)c(OCc3ccccc3)c2)SC1=S
a: 0

q: State the class of the molecule shown: O=C(O)CN1C(=O)/C(=C/c2ccc(OCc3ccccc3)c(OCc3ccc(F)c(F)c3)c2)SC1=S
a: 2

q: State the class of the molecule shown: O=C(O)CN1C(=O)/C(=C/c2ccc(OCCc3ccc(F)cc3)c(OCc3ccccc3)c2)SC1=S
a: 0

q: State the class of the molecule shown: O=C(O)CN1C(=O)/C(=C/c2ccc(OCc3ccccc3)c(OCc3ccc(C(F)(F)F)cc3)c2)SC1=S
a: 2

* * *

Tested on: Candida albicans
Assay: In vitro inhibition of Candida albicans G418-sensitive proliferation
Assay type: functional, organism-based
measured_parameter: pIC50
pIC50 (log units): -log10 of the concentration in mol/L.

The cases that follow already have their pIC50 on record.
molecule	pIC50
C[C@H](COc1ccc(/C=C2\SC(=S)N(CC(=O)O)C2=O)cc1OCc1ccccc1)c1ccccc1	6.46
O=C(O)CN1C(=O)/C(=C/c2ccc(OCc3ccc(F)cc3)c(OCc3ccc(F)cc3)c2)SC1=S	5.28
CC(Oc1cc(/C=C2\SC(=S)N(CC(=O)O)C2=O)ccc1OCCc1ccccc1)c1ccccc1 (centres undefined)	7.70

q: Record lookup: for Candida albicans, what pIC50 belongs to O=C(O)CN1C(=O)/C(=C/c2ccc(OCc3ccccc3)c(OCc3ccc(F)cc3F)c2)SC1=S ?
a: 5.22

q: Record lookup: for Candida albicans, what pIC50 belongs to O=C(O)CN1C(=O)/C(=C/c2ccc(OCc3ccc(F)c(F)c3)c(OCc3ccccc3)c2)SC1=S ?
a: 5.82

* * *

Tested on: Candida albicans
Assay: In vitro inhibition of Candida albicans G418-sensitive proliferation
Assay type: functional, organism-based
Reported values of IC50 for individual entries

The cases that follow already have their IC50 on record.
molecule	IC50
O=C(O)CN1C(=O)/C(=C/c2ccc(OCc3ccccc3)c(OCc3cccc(C(F)(F)F)c3)c2)SC1=S	> 100000 nM
NC(=O)C(Oc1cc(/C=C2\SC(=S)N(CC(=O)O)C2=O)ccc1OCCc1ccccc1)c1ccccc1 (stereo not drawn)	7000 nM
O=C(O)CN1C(=O)/C(=C/c2ccc(OCc3ccccc3)c(OCc3ccc(F)c(F)c3)c2)SC1=S	> 100000 nM
O=C(O)CN1C(=O)/C(=C/c2ccc(OCc3ccccc3)c(OCc3ccccc3)c2)SC1=S	3000 nM

Now for the molecule whose IC50 we want.
q: // returns reported IC50 for input CC(C)C(Oc1cc(/C=C2\SC(=S)N(CC(=O)O)C2=O)ccc1OCCc1ccccc1)c1ccccc1 (stereo not drawn)
a: 30 nM
